# Test system: HeLa Kyoto
# ASSAY PROCEDURE: solubility change mitosis vs G1/S (difference of NP-40 vs SDS log2 ratios) (log2 ratio difference); higher = more soluble in mitosis
MEASUREMENT NAME: solubility change mitosis (log2)
One number for each entry.

## Input Which solubility change mitosis (log2) is reported with HeLa Kyoto for this entry: MENLMTSSTLPPLFADEDGSKESNDLATTGLNHPEVPYSSGATSSTNNPEFVEDLSQGQLLQSESSNAAEGNEQRHEDEQRSKRGGWSKGRKRKKPLRDSNAPKSPLTGYVRFMNERREQLRAKRPEVPFPEITRMLGNEWSKLPPEEKQRYLDEADRDKERYMKELEQYQKTEAYKVFSRKTQDRQKGKSHRQDAARQATHDHEKETEVKERSVFDIPIFTEEFLNHSKAREAELRQLRKSNMEFEERNAALQKHVESMRTAVEKLEVDVIQERSRNTVLQQHLETLRQVLTSSFASMPLPGSGETPTVDTIDSYMNRLHSIILANPQDNENFIATVREVVNRLDR [HMG20A] ?
## Output 0.298

---

# System: HeLa Kyoto
# ASSAY PROCEDURE: thermal stability score vs G1/S (z-score of summed log2 fold changes over temperatures); higher = more thermally stable than in G1/S
# PROTOCOL CONDITIONS: cell cycle stage: mitosis
Using thermal stability score as the sorting value, the categories are bin 0 = under -2, bin 1 = from -2 up to -1, bin 2 = -1 and over

Reference set (5 entries):
MASPGCLLCVLGLLLCGAASLELSRPHGDTAKKPIIGILMQKCRNKVMKNYGRYYIAASYVKYLESAGARVVPVRLDLTEKDYEILFKSINGILFPGGSVDLRRSDYAKVAKIFYNLSIQSFDDGDYFPVWGTCLGFEELSLLISGECLLTATDTVDVAMPLNFTGGQLHSRMFQNFPTELLLSLAVEPLTANFHKWSLSVKNFTMNEKLKKFFNVLTTNTDGKIEFISTMEGYKYPVYGVQWHPEKAPYEWKNLDGISHAPNAVKTAFYLAEFFVNEARKNNHHFKSESEEEKALIYQFSPIYTGNISSFQQCYIFD [GGH]    bin 2
MPDENIFLFVPNLIGYARIVFAIISFYFMPCCPLTASSFYLLSGLLDAFDGHAARALNQGTRFGAMLDMLTDRCSTMCLLVNLALLYPGATLFFQISMSLDVASHWLHLHSSVVRGSESHKMIDLSGNPVLRIYYTSRPALFTLCAGNELFYCLLYLFHFSEGPLVGSVGLFRMGLWVTAPIALLKSLISVIHLITAARNMAALDAADRAKKK [CDIPT]    bin 1
MKLPARVFFTLGSRLPCGLAPRRFFSYGTKILYQNTEALQSKFFSPLQKAMLPPNSFQGKVAFITGGGTGLGKGMTTLLSSLGAQCVIASRKMDVLKATAEQISSQTGNKVHAIQCDVRDPDMVQNTVSELIKVAGHPNIVINNAAGNFISPTERLSPNAWKTITDIVLNGTAFVTLEIGKQLIKAQKGAAFLSITTIYAETGSGFVVPSASAKAGVEAMSKSLAAEWGKYGMRFNVIQPGPIKTKGAFSRLDPTGTFEKEMIGRIPCGRLGTVEELANLAAFLCSDYASWINGAVIKFDGGEEVLISGEFNDLRKVTKEQWDTIEELIRKTKGS [DECR1]    bin 1
MAQAKINAKANEGRFCRSSSMADRSSRLLESLDQLELRVEALREAATAVEQEKEILLEMIHSIQNSQDMRQISDGEREELNLTANRLMGRTLTVEVSVETIRNPQQQESLKHATRIIDEVVNKFLDDLGNAKSHLMSLYSACSSEVPHGPVDQKFQSIVIGCALEDQKKIKRRLETLLRNIENSDKAIKLLEHSKGAGSKTLQQNAESRFN [BAG2]    bin 0
MAAVVALSLRRRLPATTLGGACLQASRGAQTAAATAPRIKKFAIYRWDPDKAGDKPHMQTYEVDLNKCGPMVLDALIKIKNEVDSTLTFRRSCREGICGSCAMNINGGNTLACTRRIDTNLNKVSKIYPLPHMYVIKDLVPDLSNFYAQYKSIEPYLKKKDESQEGKQQYLQSIEEREKLDGLYECILCACCSTSCPSYWWNGDKYLGPAVLMQAYRWMIDSRDDFTEERLAKLQDPFSLYRCHTIMNCTRTCPKGLNPGKAIAEIKKMMATYKEKKASV [SDHB]    bin 0

## Input Category lookup for the sequence MSNRVVCREASHAGSWYTASGPQLNAQLEGWLSQVQSTKRPARAIIAPHAGYTYCGSCAAHAYKQVDPSITRRIFILGPSHHVPLSRCALSSVDIYRTPLYDLRIDQKIYGELWKTGMFERMSLQTDEDEHSIEMHLPYTAKAMESHKDEFTIIPVLVGALSESKEQEFGKLFSKYLADPSNLFVVSSDFCHWGQRFRYSYYDESQGEIYRSIEHLDKMGMSIIEQLDPVSFSNYLKKYHNTICGRHPIGVLLNAITELQKNGMNMSFSFLNYAQSSQCRNWQDSSVSYAAGALTVH [MEMO1]
## Output bin 2

## Input Same read-out for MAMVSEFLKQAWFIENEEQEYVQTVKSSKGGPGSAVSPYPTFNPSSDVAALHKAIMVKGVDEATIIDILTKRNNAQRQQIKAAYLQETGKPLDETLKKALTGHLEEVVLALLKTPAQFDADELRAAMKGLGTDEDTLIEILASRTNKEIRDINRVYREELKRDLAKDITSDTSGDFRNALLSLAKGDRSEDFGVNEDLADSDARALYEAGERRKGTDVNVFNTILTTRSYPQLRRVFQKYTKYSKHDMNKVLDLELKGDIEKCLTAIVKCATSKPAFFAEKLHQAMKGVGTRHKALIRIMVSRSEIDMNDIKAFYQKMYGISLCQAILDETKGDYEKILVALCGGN [ANXA1] ?
## Output bin 2

## Input Same read-out for MSLQWTAVATFLYAEVFVVLLLCIPFISPKRWQKIFKSRLVELLVSYGNTFFVVLIVILVLLVIDAVREIRKYDDVTEKVNLQNNPGAMEHFHMKLFRAQRNLYIAGFSLLLSFLLRRLVTLISQQATLLASNEAFKKQAESASEAAKKYMEENDQLKKGAAVDGGKLDVGNAEVKLEEENRSLKADLQKLKDELASTKQKLEKAENQVLAMRKQSEGLTKEYDRLLEEHAKLQAAVDGPMDKKEE [BCAP31] ?
## Output bin 0

---

# System: HeLa Kyoto
# ASSAY PROCEDURE: solubility in G1/S (NP-40 vs SDS abundance) (log2 ratio); higher = more soluble
# PROTOCOL CONDITIONS: cell cycle stage: G1/S
MEASUREMENT NAME: solubility in G1/S (log2)
Answers are plain numbers.

Please supply solubility in G1/S (log2) for each of the following items, keeping them in order.
1. MAGALVRKAADYVRSKDFRDYLMSTHFWGPVANWGLPIAAINDMKKSPEIISGRMTFALCCYSLTFMRFAYKVQPRNWLLFACHATNEVAQLIQGGRLIKHEMTKTASA [MPC1]
2. MLFYSFFKSLVGKDVVVELKNDLSICGTLHSVDQYLNIKLTDISVTDPEKYPHMLSVKNCFIRGSVVRYVQLPADEVDTQLLQDAARKEALQQKQ [LSM2]
3. MSHGHSHGGGGCRCAAEREEPPEQRGLAYGLYLRIDLERLQCLNESREGSGRGVFKPWEERTDRSKFVESDADEELLFNIPFTGNVKLKGIIIMGEDDDSHPSEMRLYKNIPQMSFDDTEREPDQTFSLNRDLTGELEYATKISRFSNVYHLSIHISKNFGADTTKVFYIGLRGEWTELRRHEVTICNYEASANPADHRVHQVTPQTHFIS [PITHD1]
4. MLFLALGSPWAVELPLCGRRTALCAAAALRGPRASVSRASSSSGPSGPVAGWSTGPSGAARLLRRPGRAQIPVYWEGYVRFLNTPSDKSEDGRLIYTGNMARAVFGVKCFSYSTSLIGLTFLPYIFTQNNAISESVPLPIQIIFYGIMGSFTVITPVLLHFITKGYVIRLYHEATTDTYKAITYNAMLAETSTVFHQNDVKIPDAKHVFTTFYAKTKSLLVNPVLFPNREDYIHLMGYDKEEFILYMEETSEEKRHKDDK [TMEM70]

## Output
[-0.461, -0.0676, 0.0556, -0.0239]

---

Give solubility change mitosis (log2) for every item shown.
# Tested on: HeLa Kyoto
# ASSAY PROCEDURE: solubility change mitosis vs G1/S (difference of NP-40 vs SDS log2 ratios) (log2 ratio difference); higher = more soluble in mitosis

Consider the worked cases shown below.
MAAPPEPGEPEERKSLKLLGFLDVENTPCARHSILYGSLGSVVAGFGHFLFTSRIRRSCDVGVGGFILVTLGCWFHCRYNYAKQRIQERIAREEIKKKILYEGTHLDPERKHNGSSSN [COX20]    -0.0179
MSLEQEEETQPGRLLGRRDAVPAFIEPNVRFWITERQSFIRRFLQWTELLDPTNVFISVESIENSRQLLCTNEDVSSPASADQRIQEAWKRSLATVHPDSSNLIPKLFRPAAFLPFMAPTVFLSMTPLKGIKSVILPQVFLCAYMAAFNSINGNRSYTCKPLERSLLMAGAVASSTFLGVIPQFVQMKYGLTGPWIKRLLPVIFLVQASGMNVYMSRSLESIKGIAVMDKEGNVLGHSRIAGTKAVRETLASRIVLFGTSALIPEVFTYFFKRTQYFRKNPGSLWILKLSCTVLAMGLMVPFSFSIFPQIGQIQYCSLEEKIQSPTEETEIFYHRGV [SFXN4]    -0.195
MATEGDVELELETETSGPERPPEKPRKHDSGAADLERVTDYAEEKEIQSSNLETAMSVIGDRRSREQKAKQEREKELAKVTIKKEDLELIMTEMEISRAAAERSLREHMGNVVEALIALTN [HYPK]    0.208

Okay, next one:
## Input Which solubility change mitosis (log2) is reported with HeLa Kyoto for this entry: MAAAEPSPRRVGFVGAGRMAGAIAQGLIRAGKVEAQHILASAPTDRNLCHFQALGCRTTHSNQEVLQSCLLVIFATKPHVLPAVLAEVAPVVTTEHILVSVAAGVSLSTLEELLPPNTRVLRVLPNLPCVVQEGAIVMARGRHVGSSETKLLQHLLEACGRCEEVPEAYVDIHTGLSGSGVAFVCAFSEALAEGAVKMGMPSSLAHRIAAQTLLGTAKMLLHEGQHPAQLRSDVCTPGGTTIYGLHALEQGGLRAATMSAVEAATCRAKELSRK [PYCRL] ?
## Output 0.0528

# credit: the supplement of paper PMC5998384
